- Target: METTL7A (TMT1A1; N-GST-METTL7A) (Homo sapiens)
- Sequence (Q9H8H3 whole entry): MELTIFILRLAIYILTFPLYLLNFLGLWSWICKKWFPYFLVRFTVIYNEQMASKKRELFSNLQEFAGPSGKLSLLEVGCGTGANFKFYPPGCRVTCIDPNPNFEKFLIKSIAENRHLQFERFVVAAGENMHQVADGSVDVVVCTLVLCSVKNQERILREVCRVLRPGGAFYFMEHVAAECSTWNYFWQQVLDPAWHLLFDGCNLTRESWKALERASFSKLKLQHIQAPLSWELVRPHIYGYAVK
- Protocol text: TSL S-methylation, TMSL formation by LC-MS/MS, single time-point
Measurement label: Ki (µM)
Record the value in µM, omitting the unit from your answer.

## Task Consider the compound Nc1ncnc2c1ncn2[C@@H]1O[C@H](CSCC[C@H](N)C(=O)O)[C@@H](O)[C@H]1O and give its measured Ki.
## Result 53.9

###

- Target: UniProt:Q9H8H3
- Protocol text: TSL S-methylation, TMSL formation by LC-MS/MS, single time-point
Measurement label: IC50 (µM)
Give the value, in units of µM, as a plain number.

## Task GET /values?readout=IC50&item= CC(N)c1cccc(Cl)c1Cl (stereo not drawn) [DCMB, 2,3-dichloro-α-methylbenzylamine]
## Result 1.17
